- tested_system: MSI1 RRM1-RRM2 tandem (Homo sapiens, UniProt O43347 1-200)
- Sequence (O43347 1-200): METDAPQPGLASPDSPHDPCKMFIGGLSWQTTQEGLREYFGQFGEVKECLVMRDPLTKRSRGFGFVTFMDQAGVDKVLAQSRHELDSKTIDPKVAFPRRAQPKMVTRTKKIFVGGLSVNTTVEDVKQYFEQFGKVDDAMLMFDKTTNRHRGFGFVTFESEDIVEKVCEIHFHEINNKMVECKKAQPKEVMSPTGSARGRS
- experiment_notes: SPR; KD1, bivalent analyte model (Table 3 prints 41); SPR, 3'-biotinylated RNA immobilized on dextran sensor chip, protein as analyte; running buffer, salt, pH and temperature not in the material
- assay_conditions: protein: recombinant; label: 3'-biotin; linear, single UAG motif

# binder, Kd, nM
data = [
    ("UUGUUAGUUACCCCUU (ssRNA) [RNA-L1]", 42),
]
